- System: HIV-1 LTR-III G-quadruplex (FAM/TAMRA-labeled LTR-III)
- Test: FRET melting assay, LTR-III G4
- Type: binding
- Particulars: Table S1 primary screening, ligand:ODN 50:1, singlicate
Let's look at some compounds and their measured LTR-III ΔTm.
Answer in °C, number only, no unit symbol.

Worked set:
Request: Which value of LTR-III ΔTm has been reported for CCNCC.CCOC(=O)c1noc(=O)c(O)c1-c1ccccc1 [AL 58] in the records?
Response: 0.1

Request: If you can, please state the reported LTR-III ΔTm value of CC1=NC(=Cc2ccc(N3CCC3)cc2)C(=O)N1C [N 710.12] .
Response: 0.1

Request: Would you kindly share the measured LTR-III ΔTm for COc1cc(/C=C2N=C(/C=C/c3ccccc3)N(C)C\2=O)ccc1O [M 2499a] ?
Response: 0.1

Request: # lookup: LTR-III ΔTm of CC1=NC(=Cc2cccc([N+](=O)[O-])c2)C(=O)N1CC(N)=O [SA 128]
Response: 0.1

Request: Recorded LTR-III ΔTm for CN1C(=O)/C(=C/c2cc[n+](C)cc2)N=C1c1ccccc1 [M 903.2] , please?
Response: 2.8

Request: Consider the compound CC(C)OC(=O)c1noc(C(=O)N2CCOCC2)c1-c1cccc(C(F)(F)F)c1 [SA 344A] and give its measured LTR-III ΔTm.
Response: -0.5

Request: Fill blank: measured LTR-III ΔTm of the compound CNC(=O)c1onc(C(=O)OC(C)C)c1-c1ccccc1 [SA 325A] is ____.
Response: -0.5

Request: LTR-III ΔTm lookup needed for CNC(=O)c1onc(C(=O)OC(C)C)c1-c1cccs1 [SA 330A] , thanks.
Response: -0.5

Request: What does the record list as LTR-III ΔTm for CCN(CC)c1ccc(C=C2N=C(C)N(CCCCCl)C2=O)cc1 [N 189] ?
Response: 0.2

Request: Which LTR-III ΔTm value is on record for O=C1/C(=C/c2ccncc2)N=C2C=CC=CN12 [N 817] ?
Response: 0

Further cases:
Request: So what does the record say about LTR-III ΔTm for CN1C(=O)C(=Cc2ccc(O)cc2)N=C1C=Cc1cc(Br)c(O)c(Br)c1 [ccA 12] ?
Response: 0.2

Request: Which value of LTR-III ΔTm has been reported for CN1C(=O)C(=Cc2ccc(O)cc2)N=C1C=Cc1ccc2cc(N(C)C)ccc2c1 [N 861] in the records?
Response: 0

Request: Look at this compound and give its reported LTR-III ΔTm. CC1=NC(=Cc2ccc3cc(N(C)C)ccc3c2)C(=O)N1C [X 001]
Response: -0.5

Request: Given the entry COc1ccc(-c2c(C(=O)OC(C)C)noc2C(=O)N2CCOCC2)cc1 [SA 341A] , report its measured LTR-III ΔTm.
Response: -0.7

Request: I'd like to know its LTR-III ΔTm. The compound in question is CC1=NC(=Cc2ccc([N+](=O)[O-])cc2)C(=O)N1C [SA 412]
Response: 0

Request: I would be grateful if you could share the reported LTR-III ΔTm for CCN(CC)c1ccc(C=C2N=C(C)N(C)C2=O)cc1 [GC 01] .
Response: 0.4

Request: Using the record for CC(=O)C1=NC(=Cc2c[nH]c3cccc(C)c23)C(=O)N1C [M 1981] , report its LTR-III ΔTm.
Response: 1.7

All values here come from paper PMC8533149.
